All values here come from PubChem BioAssay AID2060363.

Test system: 156681-154-R-J1-PDC tumor spheroids, viability % test/control
protocol: Anticancer human tumor 156681-154-R-J1-PDC patient-derived melanoma cell line growth inhibition [TAK]
settings: second compound 0.3 µM; first compound 0.000316 µM; stronger effect = lower value; spheroids with HUVEC and MSC
Measured viability, T/C by item
Quick note: give the figure in %, leave out the unit.

Answered examples (3):
CC(C)CC(NC(=O)CNC(=O)c1cc(Cl)ccc1Cl)B1OC(=O)CC(CC(=O)O)(C(=O)O)O1 (centres undefined) + CC(C)NCC(C(=O)N1CCN(c2ncnc3c2C(C)CC3O)CC1)c1ccc(Cl)cc1 = 96.8
CC(C)CC(NC(=O)C(Cc1ccccc1)NC(=O)c1cnccn1)B(O)O (centres undefined) + CC(C)NCC(C(=O)N1CCN(c2ncnc3c2C(C)CC3O)CC1)c1ccc(Cl)cc1 = 91.9
CC(C)n1nc(-c2ccc3oc(N)nc3c2)c2c(N)ncnc21 + CC(C)NCC(C(=O)N1CCN(c2ncnc3c2C(C)CC3O)CC1)c1ccc(Cl)cc1 = 94.5

Lookup: Please report the recorded viability, T/C for COC1CC2CCC(C)C(O)(O2)C(=O)C(=O)N2CCCCC2C(=O)OC(C(C)CC2CCC(OCCO)C(OC)C2)CC(=O)C(C)C=C(C)C(O)C(OC)C(=O)C(C)CC(C)C=CC=CC=C1C (centres undefined) + CC(C)NCC(C(=O)N1CCN(c2ncnc3c2C(C)CC3O)CC1)c1ccc(Cl)cc1 .
Found: 80

###

Test system: 156681-154-R-J1-PDC tumor spheroids, viability % test/control
protocol: Anticancer human tumor 156681-154-R-J1-PDC cell line growth inhibition [TAK];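 note: spheroids exposed to compounds for 7 days before the endpoint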
settings: second compound 30 µM; first compound 0.316 µM; stronger effect = lower value; spheroids with HUVEC and MSC
measure: viability, T/C (%)
Reply with just the number (in %).

Consider the following illustrative entries.
CCCS(=O)(=O)Nc1ccc(F)c(C(=O)c2c[nH]c3ncc(-c4ccc(Cl)cc4)cc23)c1F + CC(C)NCC(C(=O)N1CCN(c2ncnc3c2C(C)CC3O)CC1)c1ccc(Cl)cc1 = 19.2
COc1c(OCCCN2CCOCC2)ccc2c3n(c(=NC(=O)c4cnc(N)nc4)nc12)CCN3 + CC(C)NCC(C(=O)N1CCN(c2ncnc3c2C(C)CC3O)CC1)c1ccc(Cl)cc1 = 0.7
Cc1nc(NC(=O)N2CCCC2C(N)=O)sc1-c1ccnc(C(C)(C)C(F)(F)F)c1 (centres undefined) + CC(C)NCC(C(=O)N1CCN(c2ncnc3c2C(C)CC3O)CC1)c1ccc(Cl)cc1 = 11.3

We now examine a further molecule.
Lookup: Look up viability, T/C: CC(C)(C)c1nc(-c2cccc(NS(=O)(=O)c3c(F)cccc3F)c2F)c(-c2ccnc(N)n2)s1 + CC(C)NCC(C(=O)N1CCN(c2ncnc3c2C(C)CC3O)CC1)c1ccc(Cl)cc1
Found: 7.77

###

Test system: 156681-154-R-J1-PDC tumor spheroids, viability % test/control
protocol: Anticancer human tumor 156681-154-R-J1-PDC cell line growth inhibition [TAK];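 note: spheroids exposed to compounds for 7 days before the endpoint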
settings: second compound 3 µM; first compound 0.00316 µM; stronger effect = lower value; spheroids with HUVEC and MSC
Each record here notes measured viability, T/C.
Report as a plain number; the unit % is understood.

CC(C)CC(NC(=O)C(Cc1ccccc1)NC(=O)c1cnccn1)B(O)O (stereo not given) + CC(C)NCC(C(=O)N1CCN(c2ncnc3c2C(C)CC3O)CC1)c1ccc(Cl)cc1 = 15.7
CC(C)n1nc(-c2ccc3oc(N)nc3c2)c2c(N)ncnc21 + CC(C)NCC(C(=O)N1CCN(c2ncnc3c2C(C)CC3O)CC1)c1ccc(Cl)cc1 = 46.2

Lookup: Please report the recorded viability, T/C for CC(C)CC(NC(=O)CNC(=O)c1cc(Cl)ccc1Cl)B1OC(=O)CC(CC(=O)O)(C(=O)O)O1 (stereo not given) + CC(C)NCC(C(=O)N1CCN(c2ncnc3c2C(C)CC3O)CC1)c1ccc(Cl)cc1 .
Found: 78.9

Lookup: Also COc1c(OCCCN2CCOCC2)ccc2c3n(c(=NC(=O)c4cnc(N)nc4)nc12)CCN3 + CC(C)NCC(C(=O)N1CCN(c2ncnc3c2C(C)CC3O)CC1)c1ccc(Cl)cc1 , if possible.
Found: 67.4

Lookup: Query COC1CC2CCC(C)C(O)(O2)C(=O)C(=O)N2CCCCC2C(=O)OC(C(C)CC2CCC(OCCO)C(OC)C2)CC(=O)C(C)C=C(C)C(O)C(OC)C(=O)C(C)CC(C)C=CC=CC=C1C (stereo not given) + CC(C)NCC(C(=O)N1CCN(c2ncnc3c2C(C)CC3O)CC1)c1ccc(Cl)cc1 next
Found: 37.5
